- Subject Of Test: ZmDRIK1 (DROUGHT RESPONSIVE INACTIVE KINASE 1), kinase domain (Zea mays, UniProt C0P4K9)
- Construct: gene ZEAMMB73_Zm00001d028770; ZmDRIK1-KD R187-S514 (kinase domain)
- Sequence (C0P4K9 187-514): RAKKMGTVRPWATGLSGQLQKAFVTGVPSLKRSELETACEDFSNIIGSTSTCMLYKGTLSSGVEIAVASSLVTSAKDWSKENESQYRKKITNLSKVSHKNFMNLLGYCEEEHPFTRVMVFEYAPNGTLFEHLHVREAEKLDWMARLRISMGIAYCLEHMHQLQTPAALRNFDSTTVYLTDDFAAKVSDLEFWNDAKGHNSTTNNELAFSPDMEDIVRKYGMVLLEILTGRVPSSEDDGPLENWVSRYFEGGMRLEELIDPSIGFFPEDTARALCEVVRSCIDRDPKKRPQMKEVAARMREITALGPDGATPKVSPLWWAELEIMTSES
- Protocol Text: biochemical
- Experimental Parameters: read-out: dTm B, sheet ZmDRIK1-R187-S514;; DSF, Boltzmann fit, 0.1% DMSO
Structures can show the parent of a compound that is named as a salt.
Could you please report measured ΔTm at 10 µM for the items listed next?
Number only, in °C; omit the unit.

Query: # lookup: ZmDRIK1 (DROUGHT RESPONSIVE INACTIVE KINASE 1), kinase domain (Zea mays, UniProt C0P4K9) ΔTm at 10 µM, key = O=c1ncn2nc(Sc3ccc(F)cc3F)ccc2c1-c1c(Cl)cccc1Cl [VX-745]
Reply: -0.881

Query: # lookup: ZmDRIK1 (DROUGHT RESPONSIVE INACTIVE KINASE 1), kinase domain (Zea mays, UniProt C0P4K9) ΔTm at 10 µM, key = Cc1cc(Nc2ncc(Cl)c(Nc3ccccc3S(=O)(=O)C(C)C)n2)c(OC(C)C)cc1C1CCNCC1 [LDK378]
Reply: -0.744

Query: # lookup: ZmDRIK1 (DROUGHT RESPONSIVE INACTIVE KINASE 1), kinase domain (Zea mays, UniProt C0P4K9) ΔTm at 10 µM, key = CN(C)c1ccc(-c2nc3ncc(Cl)c(N4CCN(CC(=O)Nc5nccs5)CC4)c3[nH]2)cc1 [CCT129202]
Reply: -1.56

Query: # lookup: ZmDRIK1 (DROUGHT RESPONSIVE INACTIVE KINASE 1), kinase domain (Zea mays, UniProt C0P4K9) ΔTm at 10 µM, key = OCCn1cc(-c2ccc3c(c2)CC/C3=N\O)c(-c2ccncc2)n1 [GDC-0879]
Reply: -0.639

Query: # lookup: ZmDRIK1 (DROUGHT RESPONSIVE INACTIVE KINASE 1), kinase domain (Zea mays, UniProt C0P4K9) ΔTm at 10 µM, key = COc1c(C)c(C(=O)c2ccc(N)c(C(=O)O)c2)n2ccccc12 [SSR128129E]
Reply: -0.884

Query: # lookup: ZmDRIK1 (DROUGHT RESPONSIVE INACTIVE KINASE 1), kinase domain (Zea mays, UniProt C0P4K9) ΔTm at 10 µM, key = Cc1csc(-c2nnc(Nc3ccc(Oc4ncccc4-c4ccnc(N)n4)cc3)c3ccccc23)c1 [AMG-900]
Reply: -6.12

Query: # lookup: ZmDRIK1 (DROUGHT RESPONSIVE INACTIVE KINASE 1), kinase domain (Zea mays, UniProt C0P4K9) ΔTm at 10 µM, key = Cc1cnc(Nc2ccc(N3CCN(C)CC3)cc2)nc1Nc1cccc(S(=O)(=O)NC(C)(C)C)c1 [TG101209]
Reply: -0.897

Query: # lookup: ZmDRIK1 (DROUGHT RESPONSIVE INACTIVE KINASE 1), kinase domain (Zea mays, UniProt C0P4K9) ΔTm at 10 µM, key = Cc1ccc(S(=O)(=O)/C=C/C#N)cc1 [BAY 11-7082]
Reply: -1.51

Query: # lookup: ZmDRIK1 (DROUGHT RESPONSIVE INACTIVE KINASE 1), kinase domain (Zea mays, UniProt C0P4K9) ΔTm at 10 µM, key = NCC(=O)Nc1ccc(-n2nc(C(F)(F)F)cc2-c2ccc3c(ccc4ccccc43)c2)cc1 [OSU-03012 (AR-12)]
Reply: -0.382

Query: # lookup: ZmDRIK1 (DROUGHT RESPONSIVE INACTIVE KINASE 1), kinase domain (Zea mays, UniProt C0P4K9) ΔTm at 10 µM, key = CCS(=O)(=O)c1cccc(-c2cc(C(=O)NC3CCN(C)CC3)c(C)c3[nH]c4ncc(C)cc4c23)c1 [TAK-901]
Reply: -0.544

Query: # lookup: ZmDRIK1 (DROUGHT RESPONSIVE INACTIVE KINASE 1), kinase domain (Zea mays, UniProt C0P4K9) ΔTm at 10 µM, key = OCCn1cc(-c2cnc3nnn(Cc4ccc5ncccc5c4)c3n2)cn1 [PF-04217903]
Reply: -0.576

Query: # lookup: ZmDRIK1 (DROUGHT RESPONSIVE INACTIVE KINASE 1), kinase domain (Zea mays, UniProt C0P4K9) ΔTm at 10 µM, key = COCC(=O)NC/C=C/c1ccc2ncnc(Nc3ccc(Oc4ccc(C)nc4)c(C)c3)c2c1 [CP-724714]
Reply: -0.904

Query: # lookup: ZmDRIK1 (DROUGHT RESPONSIVE INACTIVE KINASE 1), kinase domain (Zea mays, UniProt C0P4K9) ΔTm at 10 µM, key = NS(=O)(=O)c1ccc(N/C=C2\C(=O)Nc3ccc4ncsc4c32)cc1 [GW297361X]
Reply: -0.74

Query: # lookup: ZmDRIK1 (DROUGHT RESPONSIVE INACTIVE KINASE 1), kinase domain (Zea mays, UniProt C0P4K9) ΔTm at 10 µM, key = CN1CCC(CNc2ccc3ncc(-c4cccc(OC(F)(F)F)c4)n3n2)CC1 [SGI-1776 free base]
Reply: -1.1

Query: # lookup: ZmDRIK1 (DROUGHT RESPONSIVE INACTIVE KINASE 1), kinase domain (Zea mays, UniProt C0P4K9) ΔTm at 10 µM, key = Oc1cc(O)cc(/C=C/c2ccc(O)c(O)c2)c1 [Piceatannol]
Reply: -0.69

Query: # lookup: ZmDRIK1 (DROUGHT RESPONSIVE INACTIVE KINASE 1), kinase domain (Zea mays, UniProt C0P4K9) ΔTm at 10 µM, key = O=C(Nc1cccc(Nc2ncc(Br)c(NCCc3cnc[nH]3)n2)c1)N1CCCC1 [BX-912]
Reply: -0.512

Query: # lookup: ZmDRIK1 (DROUGHT RESPONSIVE INACTIVE KINASE 1), kinase domain (Zea mays, UniProt C0P4K9) ΔTm at 10 µM, key = Cc1c(NC(=O)OC[C@@H]2COCCN2)cn2ncnc(Nc3ccc4c(cnn4Cc4cccc(F)c4)c3)c12 [AC480 (BMS-599626)]
Reply: -0.997

Query: # lookup: ZmDRIK1 (DROUGHT RESPONSIVE INACTIVE KINASE 1), kinase domain (Zea mays, UniProt C0P4K9) ΔTm at 10 µM, key = Cc1ccc(NC(=O)c2cccc(N(C)C)c2)cc1NC(=O)c1ccc(O)cc1 [ZM 336372]
Reply: -1

Query: # lookup: ZmDRIK1 (DROUGHT RESPONSIVE INACTIVE KINASE 1), kinase domain (Zea mays, UniProt C0P4K9) ΔTm at 10 µM, key = C=CC(=O)N1CCN(c2nc(=O)n(-c3c(C)ccnc3C(C)C)c3nc(-c4c(O)cccc4F)c(F)cc23)[C@@H](C)C1 [K-Ras(G12C) inhibitor 9]
Reply: -0.658

Query: # lookup: ZmDRIK1 (DROUGHT RESPONSIVE INACTIVE KINASE 1), kinase domain (Zea mays, UniProt C0P4K9) ΔTm at 10 µM, key = CCN1CCN(Cc2ccc(-c3cc4c(N[C@H](C)c5ccccc5)ncnc4[nH]3)cc2)CC1 [AEE788 (NVP-AEE788)]
Reply: -0.878

Query: # lookup: ZmDRIK1 (DROUGHT RESPONSIVE INACTIVE KINASE 1), kinase domain (Zea mays, UniProt C0P4K9) ΔTm at 10 µM, key = COc1cc2nccc(Oc3ccc(NC(=O)Nc4cc(C)on4)c(Cl)c3)c2cc1OC [Tivozanib (AV-951)]
Reply: -0.0903

Query: # lookup: ZmDRIK1 (DROUGHT RESPONSIVE INACTIVE KINASE 1), kinase domain (Zea mays, UniProt C0P4K9) ΔTm at 10 µM, key = CC(C)N(CCC(=O)c1ccc2ccccc2c1)Cc1ccccc1 [ZM 39923 HCl]
Reply: -1.58

Query: # lookup: ZmDRIK1 (DROUGHT RESPONSIVE INACTIVE KINASE 1), kinase domain (Zea mays, UniProt C0P4K9) ΔTm at 10 µM, key = CO[C@H]1C[C@@H]2CC[C@@H](C)[C@@](O)(O2)C(=O)C(=O)N2CCCC[C@H]2C(=O)O[C@H]([C@H](C)C[C@@H]2CC[C@@H](O)[C@H](OC)C2)CC(=O)[C@H](C)/C=C(\C)[C@@H](O)[C@@H](OC)C(=O)[C@H](C)C[C@H](C)/C=C/C=C/C=C/1C [Rapamycin (Sirolimus)]
Reply: -1.41

Query: # lookup: ZmDRIK1 (DROUGHT RESPONSIVE INACTIVE KINASE 1), kinase domain (Zea mays, UniProt C0P4K9) ΔTm at 10 µM, key = C#Cc1cccc(Nc2ncnc3cc(OCCOC)c(OCCO)cc23)c1 [OSI-420]
Reply: -1.2

Query: # lookup: ZmDRIK1 (DROUGHT RESPONSIVE INACTIVE KINASE 1), kinase domain (Zea mays, UniProt C0P4K9) ΔTm at 10 µM, key = Cc1[nH]c2ccccc2c1C1=C(NCCc2ccc(F)cc2)C(=O)N(C)C1=O [IM-12]
Reply: -0.881

Query: # lookup: ZmDRIK1 (DROUGHT RESPONSIVE INACTIVE KINASE 1), kinase domain (Zea mays, UniProt C0P4K9) ΔTm at 10 µM, key = Clc1ccc(Nc2nnc(Cc3ccncc3)c3ccccc23)cc1 [Vatalanib (PTK787) 2HCl]
Reply: -0.775

Query: # lookup: ZmDRIK1 (DROUGHT RESPONSIVE INACTIVE KINASE 1), kinase domain (Zea mays, UniProt C0P4K9) ΔTm at 10 µM, key = O=C1Nc2ccccc2/C1=C1/Nc2ccccc2C1=O [Indirubin]
Reply: -0.784

Query: # lookup: ZmDRIK1 (DROUGHT RESPONSIVE INACTIVE KINASE 1), kinase domain (Zea mays, UniProt C0P4K9) ΔTm at 10 µM, key = C[C@@H](Oc1cc(-n2cnc3ccc(CN4CCN(C)CC4)cc32)sc1C(N)=O)c1ccccc1C(F)(F)F [GSK461364]
Reply: -1.05

Query: # lookup: ZmDRIK1 (DROUGHT RESPONSIVE INACTIVE KINASE 1), kinase domain (Zea mays, UniProt C0P4K9) ΔTm at 10 µM, key = COc1ccccc1-c1cc(Nc2cccc(CS(N)(=O)=O)c2)ncn1 [LDC000067]
Reply: -0.172

Query: # lookup: ZmDRIK1 (DROUGHT RESPONSIVE INACTIVE KINASE 1), kinase domain (Zea mays, UniProt C0P4K9) ΔTm at 10 µM, key = CCNC(=O)Nc1ccc(-c2nc3c(c(N4CCOC[C@@H]4C)n2)CCN(C2COC2)C3)cc1 [GDC-0349]
Reply: -0.899

Query: # lookup: ZmDRIK1 (DROUGHT RESPONSIVE INACTIVE KINASE 1), kinase domain (Zea mays, UniProt C0P4K9) ΔTm at 10 µM, key = Cn1cc(-c2[nH]c3cc(NC(=O)[C@H](N)C4CCCCC4)cc4c3c2C=NNC4=O)cn1 [PF-477736]
Reply: -0.63

Query: # lookup: ZmDRIK1 (DROUGHT RESPONSIVE INACTIVE KINASE 1), kinase domain (Zea mays, UniProt C0P4K9) ΔTm at 10 µM, key = Cc1ccc(NC(=O)c2ccc(CN3CCN(C)CC3)cc2)cc1Nc1nc(-c2cccnc2)cs1 [Masitinib (AB1010)]
Reply: -0.818
